Target: T1, cJun bZIP (human, UniProt P05412 252-308, limits assumed)
T1 construct: Purified from a His-SUMO fusion with the tag cleaved off; also called c-Jun bZIP domain; 60 amino acid c-Jun bZIP construct
T1 chain: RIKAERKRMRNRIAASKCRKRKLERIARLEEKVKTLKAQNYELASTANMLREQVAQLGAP
Assay: CD thermal denaturation, peptide 5 µM and c-Jun 5 µM
Consider the following proteins; for each one, report its Tm (° C.) of peptide-c-Jun heterodimer.
Response body: numeric value in ° C., unit text excluded.

Any idea what its Tm (° C.) of peptide-c-Jun heterodimer is? The protein is Ac-EAEELVVEEDVLEEEIEQLEERNYALRKEIEDLQKQLEKL-NH2 (Synthetic, NΔ20 CΔ3) [HingeW variant peptide 4]
64.1

Fill in: Tm (° C.) of peptide-c-Jun heterodimer of Ac-KEAEDLVVEEDVLEEEIEQLEERNYALRKEIKDLQDQ-NH2 (lactam (positions not given here); also: one i to i+4 K-D lactam bridge, pair not given here, Synthetic, NΔ19 CΔ7; also called cyclised form of 12/13) [HingeW variant peptide 13] is ___
58.5

Recorded Tm (° C.) of peptide-c-Jun heterodimer of Ac-EAEELVVEEDVLEEEIKQLEDRNYALRKEIEDLQKQ-NH2 (Synthetic, NΔ20 CΔ7; also called linear form of 18/19) [HingeW variant peptide 18] , please.
55.5

# lookup: Tm (° C.) of peptide-c-Jun heterodimer of HingeW (Recombinant, capped (MAS at the N-terminus, GAP at the C-terminus) and C-terminally 6xHis-tagged, 69 amino acids; also called peptide 1) peptide: MASLEQRAEELARENEELEKEAEELVVEEDVLEEEIEQLEERNYALRKEIEDLQKQLEKLGAPHHHHHH
71.2

For Ac-EAEELVVEEDVLEEEIEQLEERNYALRKEIEDLQKQ-NH2 (Synthetic, NΔ20 CΔ7) [HingeW variant peptide 11] , what is its reported Tm (° C.) of peptide-c-Jun heterodimer?
57.1
